Reference source: ChEMBL document CHEMBL1122898

# System: Canis familiaris
# experiment notes: Inhibition of histamine stimulated gastric acid secretion in adult mongrel dogs at dose 2 mg/kg given orally
# Assay type: functional
# conditions: Canis lupus familiaris, Stomach, route oral
Kindly supply the reported inhibition in vivo at 2 mg/kg values for the records listed here.
Answer format: numeric, % implied, no suffix.

Value wanted: inhibition in vivo at 2 mg/kg (Canis familiaris) of entry Cc1nc2c(OCc3ccsc3)cccn2c1CC#N 40

Request: inhibition in vivo at 2 mg/kg, test system Canis familiaris, entry Cc1nc2c(OCc3ccc(Cl)cc3)cccn2c1CC#N 30

Which inhibition in vivo at 2 mg/kg is reported with Canis familiaris for this entry: Cc1nc2c(OCc3ccccc3)cccn2c1CC#N ? 20

Field: inhibition in vivo at 2 mg/kg (Canis familiaris). Entry: Cc1nc2c(OCCc3ccccc3)cccn2c1CC#N 0

# returns recorded inhibition in vivo at 2 mg/kg (system: Canis familiaris) for N#CCc1cnc2c(OCc3ccccc3)cccn12 6
